Target: Transglutaminase 2 (Cavia cutleri)
Sequence (P08587 1-690): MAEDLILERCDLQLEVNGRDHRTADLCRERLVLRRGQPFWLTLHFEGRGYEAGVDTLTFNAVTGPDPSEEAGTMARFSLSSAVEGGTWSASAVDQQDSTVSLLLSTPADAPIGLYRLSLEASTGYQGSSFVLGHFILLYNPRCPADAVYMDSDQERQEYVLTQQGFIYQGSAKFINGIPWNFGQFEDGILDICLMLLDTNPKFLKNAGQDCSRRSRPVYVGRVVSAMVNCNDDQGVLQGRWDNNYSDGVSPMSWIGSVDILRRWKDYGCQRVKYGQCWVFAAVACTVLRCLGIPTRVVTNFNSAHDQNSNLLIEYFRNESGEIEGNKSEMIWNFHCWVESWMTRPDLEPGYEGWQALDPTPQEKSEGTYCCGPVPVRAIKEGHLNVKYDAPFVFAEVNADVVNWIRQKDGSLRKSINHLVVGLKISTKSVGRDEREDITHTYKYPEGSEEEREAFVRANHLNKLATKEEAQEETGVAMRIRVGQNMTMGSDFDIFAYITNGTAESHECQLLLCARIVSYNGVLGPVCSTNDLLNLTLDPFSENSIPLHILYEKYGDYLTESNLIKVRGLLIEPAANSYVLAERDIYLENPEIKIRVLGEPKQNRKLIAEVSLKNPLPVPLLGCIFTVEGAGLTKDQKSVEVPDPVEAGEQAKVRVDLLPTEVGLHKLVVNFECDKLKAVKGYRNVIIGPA
Measured endpoint: IC50 (nM)
Express it in nM; write the number only.

compound O=C(/C=C/c1ccc(O)c(O)c1)O[C@@H]1C[C@](O)(C(=O)O)C[C@@H](O)[C@H]1O , IC50 observed: 1490
